Origin of values: patent US20080044360A1

# target.or.test.system: T1, human collagen type I, acid soluble, extracted from placenta (Sigma C7774) (human, UniProt P02452 162-1218; P08123 80-1119)
# T1 construct: tissue extract, gelled and dried in wells; also called dried human collagen; h-Collagen
# T1 sequence (P02452 162-1218 limits assumed, chain 1 of 2): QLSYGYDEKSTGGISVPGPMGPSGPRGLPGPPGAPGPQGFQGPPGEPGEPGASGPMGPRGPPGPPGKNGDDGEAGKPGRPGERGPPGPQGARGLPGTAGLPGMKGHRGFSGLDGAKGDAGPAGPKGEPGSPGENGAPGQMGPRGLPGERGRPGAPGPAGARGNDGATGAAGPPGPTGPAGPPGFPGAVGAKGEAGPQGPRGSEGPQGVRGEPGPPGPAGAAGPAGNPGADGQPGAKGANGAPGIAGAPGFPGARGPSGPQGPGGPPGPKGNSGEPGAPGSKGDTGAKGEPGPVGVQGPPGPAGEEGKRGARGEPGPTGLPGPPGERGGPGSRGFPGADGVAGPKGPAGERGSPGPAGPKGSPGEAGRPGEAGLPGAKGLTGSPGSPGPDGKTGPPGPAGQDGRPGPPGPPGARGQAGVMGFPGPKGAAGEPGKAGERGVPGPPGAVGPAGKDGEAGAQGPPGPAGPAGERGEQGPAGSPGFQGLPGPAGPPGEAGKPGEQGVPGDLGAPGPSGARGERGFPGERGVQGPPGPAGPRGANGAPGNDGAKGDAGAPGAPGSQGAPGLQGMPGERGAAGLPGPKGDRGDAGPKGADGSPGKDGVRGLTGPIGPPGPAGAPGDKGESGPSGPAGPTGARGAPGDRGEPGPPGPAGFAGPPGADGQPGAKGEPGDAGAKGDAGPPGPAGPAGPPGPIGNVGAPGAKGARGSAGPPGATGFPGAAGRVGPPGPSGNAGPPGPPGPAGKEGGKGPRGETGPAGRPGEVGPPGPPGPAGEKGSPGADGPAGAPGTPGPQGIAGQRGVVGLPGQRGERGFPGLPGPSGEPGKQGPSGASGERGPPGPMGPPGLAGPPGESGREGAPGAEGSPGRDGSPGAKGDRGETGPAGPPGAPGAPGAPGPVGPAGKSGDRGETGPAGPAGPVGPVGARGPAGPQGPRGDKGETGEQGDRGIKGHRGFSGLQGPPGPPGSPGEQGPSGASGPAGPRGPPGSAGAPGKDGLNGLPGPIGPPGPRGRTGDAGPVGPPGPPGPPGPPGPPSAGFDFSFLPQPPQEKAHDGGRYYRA
# T1 sequence (P08123 80-1119 limits assumed, chain 2 of 2): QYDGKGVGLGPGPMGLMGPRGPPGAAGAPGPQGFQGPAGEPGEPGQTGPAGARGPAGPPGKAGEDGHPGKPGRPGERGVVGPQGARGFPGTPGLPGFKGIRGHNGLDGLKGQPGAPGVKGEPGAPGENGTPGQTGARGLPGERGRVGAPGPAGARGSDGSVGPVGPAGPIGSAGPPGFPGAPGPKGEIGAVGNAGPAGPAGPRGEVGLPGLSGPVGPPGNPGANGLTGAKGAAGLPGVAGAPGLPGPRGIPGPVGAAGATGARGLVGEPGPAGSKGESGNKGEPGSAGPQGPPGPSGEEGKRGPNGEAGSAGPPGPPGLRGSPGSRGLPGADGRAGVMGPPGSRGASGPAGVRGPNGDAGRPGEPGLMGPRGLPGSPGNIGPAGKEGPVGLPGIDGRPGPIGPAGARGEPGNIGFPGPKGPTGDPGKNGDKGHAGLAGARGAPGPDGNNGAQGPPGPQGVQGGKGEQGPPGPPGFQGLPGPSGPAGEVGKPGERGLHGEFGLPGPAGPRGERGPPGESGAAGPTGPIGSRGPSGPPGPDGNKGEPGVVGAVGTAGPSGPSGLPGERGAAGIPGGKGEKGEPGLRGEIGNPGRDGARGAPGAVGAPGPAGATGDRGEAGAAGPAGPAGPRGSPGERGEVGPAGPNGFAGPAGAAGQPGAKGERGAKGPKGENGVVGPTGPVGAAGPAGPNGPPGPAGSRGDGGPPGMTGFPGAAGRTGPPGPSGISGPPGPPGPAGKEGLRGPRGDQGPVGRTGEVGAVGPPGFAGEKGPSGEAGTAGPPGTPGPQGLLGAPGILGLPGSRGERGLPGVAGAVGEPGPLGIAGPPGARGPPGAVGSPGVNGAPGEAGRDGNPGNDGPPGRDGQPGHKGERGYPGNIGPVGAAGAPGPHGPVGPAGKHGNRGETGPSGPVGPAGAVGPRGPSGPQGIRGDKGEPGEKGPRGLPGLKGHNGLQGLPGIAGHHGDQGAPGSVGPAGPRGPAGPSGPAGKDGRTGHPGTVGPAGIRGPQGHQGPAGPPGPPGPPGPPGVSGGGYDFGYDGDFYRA
# test.details: dried collagen assay
Bridge positions count the residues as written; N and C are the ends. Square brackets hold non-standard residues; d marks the D form. Primed or numbered codes have the meaning given here. Ends that are not written are not given here. Bip = N[C@@H](Cc1ccc(-c2ccccc2)cc1)C(=O)O; Phe(4-NH2) = Nc1ccc(C[C@H](N)C(=O)O)cc1; Gd^T(3) = GdDTPA attached via thiourea; Gd^T″ = GdDTPA-thiourea
measure.name: % bound (%)

binder="{Gd^T″}-GQWHCTTD[Phe(4-NH2)]PHHYCLYG (disulfide 5-14 (inferred)) [Compound ID 884]" unit_abbrev=% numeric_result=24
binder="{Gd^T(3)}-K(Gd^T(3))K(Gd^T(3))WHCTTK(Gd^T(3))FPHHYCLY[Bip] (disulfide 5-14 (inferred)) [Compound ID 997]" unit_abbrev=% numeric_result=53
binder="{Gd^T″}-GQWHCTTRFPHHYCFYG (disulfide 5-14 (inferred)) [Compound ID 931]" unit_abbrev=% numeric_result=70
